Dear all, I have gathered published pKi values for Carbonic anhydrase 9 (Homo sapiens); the list follows.
pKi: −log10 of the molar value.
ASSAY ENDPOINT: pKi

Example cases with answers are listed next.
# COMPOUND, STUDY SYSTEM, READOUT NUMBER
data = [
    ("CC(C)c1ccc(C2C=C(Nc3ccc(S(N)(=O)=O)cc3)C(=O)N2c2ccc(S(N)(=O)=O)cc2)cc1 (centres undefined)", "Carbonic anhydrase 9 (Homo sapiens)", 7.62),
    ("O=C(Nc1ccc2c(c1)C=CS(=O)(=O)O2)c1ccc(F)c(S(=O)(=O)N2CCCCC2)c1", "Carbonic anhydrase 9 (Homo sapiens)", 7.51),
    ("Cc1ccc(C(=O)Nc2ccc3c(c2)C=CS(=O)(=O)O3)cc1S(=O)(=O)N1C[C@@H](C)O[C@@H](C)C1", "Carbonic anhydrase 9 (Homo sapiens)", 7.51),
    ("COc1ccc(C2C=C(Nc3ccc(S(N)(=O)=O)cc3)C(=O)N2c2ccc(S(N)(=O)=O)cc2)cc1OC (centres undefined)", "Carbonic anhydrase 9 (Homo sapiens)", 8.54),
    ("NS(=O)(=O)c1ccc(N2C(=O)CCSC2c2ccc(Cl)cc2)cc1 (racemic)", "Carbonic anhydrase 9 (Homo sapiens)", 7.70),
]

1 = CCCNCCCN
2 = O=[N+]([O-])c1ccc(S(=O)(=O)NCC(F)CCl)cc1 (centres undefined)
3 = NS(=O)(=O)c1ccc(N2C(=O)CCSC2c2ccc(F)cc2)cc1 (racemic)
Please list these in order of increasing pKi. Thank you! Would you mind listing the labels in the order requested?
2, 1, 3
(2: 4.70, 1: 5.53, 3: 7.13)

A = COc1cc2c(cc1OC)-c1c(c(C(=O)Nc3ccc(S(N)(=O)=O)cc3)nn1C)C2
B = NS(=O)(=O)c1ccc(NC2=CC(c3cc(C(F)(F)F)cc(C(F)(F)F)c3)N(c3ccc(S(N)(=O)=O)cc3)C2=O)cc1 (centres undefined)
C = COc1cc(OC)c(C2C=C(Nc3ccc(S(N)(=O)=O)cc3)C(=O)O2)cc1OC (centres undefined)
Order by pKi, ascending. Give your ranking as a list of the labels in the requested order.
B, A, C
(B: 7.40, A: 8.49, C: 8.74)

* * *

Below, Ki values reported for Carbonic anhydrase 9 (Homo sapiens) across several publications.
ASSAY ENDPOINT: Ki (nM)

Use these answered entries as a reference point.
# COMPOUND, VALUE UNITS, Ki
records = [
    ("CC(F)CNCCCCN1C(=O)c2ccccc2C1=O (stereo not drawn)", "nM", 26),
    ("NS(=O)(=O)c1cc(C(=O)N/N=C/c2ccc(Br)cc2O)c(SCc2ccccc2)cc1Cl", "nM", 85.7),
    ("NS(=O)(=O)c1ccc(N2C(=O)CCSC2c2ccc([N+](=O)[O-])cc2)cc1 (racemic)", "nM", 54.8),
    ("COc1cc(C2C=C(Nc3ccc(S(N)(=O)=O)cc3)C(=O)N2c2ccc(S(N)(=O)=O)cc2)ccc1O (stereo not drawn)", "nM", 3.2),
    ("CCN1C(=O)/C(=C\\c2ccc(F)cc2)S/C1=N/c1ccc(S(N)(=O)=O)cc1", "nM", 33.9),
    ("N#Cc1ccc(C2C=C(Nc3ccc(S(N)(=O)=O)cc3)C(=O)N2c2ccc(S(N)(=O)=O)cc2)cc1 (stereo not drawn)", "nM", 25.7),
]

I = CCCCc1ccc(C2C=C(Nc3ccc(S(N)(=O)=O)cc3)C(=O)N2c2ccc(S(N)(=O)=O)cc2)cc1 (stereo not drawn)
II = COc1ccc(C2C=C(Nc3ccc(S(N)(=O)=O)cc3)C(=O)N2c2ccc(S(N)(=O)=O)cc2)cc1O (stereo not drawn)
III = NS(=O)(=O)c1ccc(/N=C2\NC(=O)/C(=C3\C(=O)Nc4ccccc43)S2)cc1
IV = NS(=O)(=O)c1cc(C(=O)N/N=C/c2ccc(O)cc2O)c(SCc2ccc(F)cc2)cc1Cl
V = NS(=O)(=O)c1ccc(NC2=CC(c3ccc4c(c3)OCO4)N(c3ccc(S(N)(=O)=O)cc3)C2=O)cc1 (stereo not drawn)
Task for the reader: rank each entry by its Ki, from the minimum upward. # respond with the labels, arranged in the requested order
II, I, III, IV, V
(II: 2.4 nM, I: 30.6 nM, III: 47 nM, IV: 80.1 nM, V: 150 nM)
